The reported numbers originate from paper PMC12434536.

test: Pharmacokinetics in plasma and brain (NeuroPK study); format: in vivo, Sprague-Dawley rats; conditions: male, Sprague-Dawley, rat, brain, iv, 1 mg/kg, 25 min; single iv 1 mg/kg, male Sprague-Dawley rats, n = 3; read-out: Kp (brain-to-plasma ratio) mean
measuredAttribute: Kp at 25 min
Give your answer as a number; write no unit.

Give Kp at 25 min for COc1ccc(Cl)c2c1C1(CCCCC1)NC(=O)N2 4

###

Target: CYP1A2 (Homo sapiens)
Sequence (P05177 1-516): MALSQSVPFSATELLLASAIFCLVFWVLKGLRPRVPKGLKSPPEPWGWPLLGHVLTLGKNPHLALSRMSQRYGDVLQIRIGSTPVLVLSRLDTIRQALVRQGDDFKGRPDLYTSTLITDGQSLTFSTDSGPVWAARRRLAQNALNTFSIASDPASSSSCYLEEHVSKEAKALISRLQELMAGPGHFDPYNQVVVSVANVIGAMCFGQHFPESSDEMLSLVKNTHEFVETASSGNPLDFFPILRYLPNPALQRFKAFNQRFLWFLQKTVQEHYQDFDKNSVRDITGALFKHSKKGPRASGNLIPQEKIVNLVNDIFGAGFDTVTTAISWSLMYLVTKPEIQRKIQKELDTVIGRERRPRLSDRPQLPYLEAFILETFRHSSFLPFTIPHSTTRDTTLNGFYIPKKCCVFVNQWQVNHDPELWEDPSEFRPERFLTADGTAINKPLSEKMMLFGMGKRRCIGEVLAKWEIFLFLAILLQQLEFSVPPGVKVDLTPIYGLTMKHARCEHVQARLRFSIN
Assay: CYP450 isoform inhibition profiling, CYP1A2
measuredAttribute: pIC50
Just so you know, pIC50 here is -log10 of the concentration in molar units; reply with that number alone.

Report pIC50 on CYP1A2 (Homo sapiens) for this entry: COc1ccc(Cl)c2c1C1(CCCCC1)NC(=O)N2 5.36

###

assay: Pharmacokinetics in plasma and brain (NeuroPK study); assay type: in vivo, Sprague-Dawley rats; settings: male, Sprague-Dawley, rat, brain, iv, 1 mg/kg, 5 min; single iv 1 mg/kg, male Sprague-Dawley rats, n = 3; read-out: Kp (brain-to-plasma ratio) mean
measuredAttribute: Kp at 5 min
Give your answer as a number; write no unit.

Give Kp at 5 min for COc1ccc(Cl)c2c1C1(CCCCC1)NC(=O)N2 4.76

###

Experiment: Pharmacokinetics in plasma and brain (NeuroPK study)
Type: in vivo, Sprague-Dawley rats
Conditions: rat, plasma; 5 min; single iv 1 mg/kg, male Sprague-Dawley rats, n = 3; read-out: plasma concentration mean
Method: Pharmacokinetics in Plasma and Brain (NeuroPK study) Nine male wildtype Sprague Dawley rats were administered a bolus injection containing compound 27 in saline (1 mg/kg, 2 mL/kg) via the tail vein. Blood samples (approximately 120 µL) were harvested under light isoflurane anesthesia from a set of three rats at 0.08, 0.25, and 1 hr. Blood and brain samples were collected at 5, 25 and 60 min. […] Plasma and brain samples were quantified by LC-MS/MS method. […]
measuredAttribute: concentration at 5 min (ng/mL)
Your answer should be a plain number; it is taken to be in ng/mL.

Give concentration at 5 min for COc1ccc(Cl)c2c1C1(CCCCC1)NC(=O)N2 712

###

assay: Plasma protein binding (free fraction); type: in vitro ADME; conditions: mouse, rat, and human plasma
measuredAttribute: fraction unbound at 10 min

Give fraction unbound at 10 min for COc1ccc(Cl)c2c1C1(CCCCC1)NC(=O)N2 ≥ 0.01
